assay: Cocrystal screening by heating method without menthol (Comparative Example 6); assay type: physicochemical; parameters: key: A cocrystal was completely formed.; B: A mixture of a cocrystal and the host compound or guest compound was formed.; C: A cocrystal was not formed (a mixture of the host compound and the guest compound was formed); settings: host carbamazepine, equimolar guest, no menthol, 4 hours at 80° C.
PROPERTY_LABEL: Cocrystal formation, Comparative Example 6

- COMPOUND: "O=C(O)CCCC(=O)O [Glutaric acid]"
  REPORTED_MEASUREMENT: "B"
- COMPOUND: "NC(=O)c1cccnc1 [Nicotinamide]"
  REPORTED_MEASUREMENT: "B"
- COMPOUND: "O=C(O)c1ccccc1 [Benzoic acid]"
  REPORTED_MEASUREMENT: "B"
- COMPOUND: "NCC(=O)O [Glycine]"
  REPORTED_MEASUREMENT: "C"
- COMPOUND: "O=C(O)C(=O)O [Oxalic acid]"
  REPORTED_MEASUREMENT: "B"
- COMPOUND: "O=C(O)CC(=O)O [Malonic acid]"
  REPORTED_MEASUREMENT: "B"
- COMPOUND: "CC(C)C[C@H](N)C(=O)O [L-Leucine]"
  REPORTED_MEASUREMENT: "C"
- COMPOUND: "NC(=O)c1ccccc1 [Benzamide]"
  REPORTED_MEASUREMENT: "B"
- COMPOUND: "O=S(=O)(O)CCS(=O)(=O)O [Ethanedisulfonic acid]"
  REPORTED_MEASUREMENT: "B"
- COMPOUND: "O=C1NS(=O)(=O)c2ccccc21 [Saccharin]"
  REPORTED_MEASUREMENT: "C"
- COMPOUND: "N=C(N)NCCC[C@H](N)C(=O)O [L(+)-Arginine]"
  REPORTED_MEASUREMENT: "C"
- COMPOUND: "O=C(O)/C=C\\C(=O)O [Maleic acid]"
  REPORTED_MEASUREMENT: "C"
- COMPOUND: "C/C=C/C=C/C(=O)O [Sorbic acid]"
  REPORTED_MEASUREMENT: "B"
- COMPOUND: "O=C(O)CC(O)(CC(=O)O)C(=O)O [Citric acid]"
  REPORTED_MEASUREMENT: "B"

###

test: Cocrystal screening by co-grinding method (Comparative Example 2); assay type: physicochemical; design: key: A cocrystal was completely formed.; B: A mixture of a cocrystal and the host compound or guest compound was formed.; C: A cocrystal was not formed (a mixture of the host compound and the guest compound was formed); conditions: host theophylline, equimolar guest, mixed/ground in agate mortar
PROPERTY_LABEL: Cocrystal formation, Comparative Example 2

- COMPOUND: "O=C(O)/C=C\\C(=O)O"
  REPORTED_MEASUREMENT: "C"
- COMPOUND: "CC(C)C[C@H](N)C(=O)O"
  REPORTED_MEASUREMENT: "C"
- COMPOUND: "O=C(O)C(=O)O"
  REPORTED_MEASUREMENT: "B"
- COMPOUND: "O=S(=O)(O)CCS(=O)(=O)O"
  REPORTED_MEASUREMENT: "A"
- COMPOUND: "O=C1NS(=O)(=O)c2ccccc21"
  REPORTED_MEASUREMENT: "C"
- COMPOUND: "NC(=O)c1cccnc1 [Nicotinamide]"
  REPORTED_MEASUREMENT: "C"
- COMPOUND: "NC(=O)c1ccccc1 [Benzamide]"
  REPORTED_MEASUREMENT: "C"
- COMPOUND: "O=C(O)CC(O)(CC(=O)O)C(=O)O"
  REPORTED_MEASUREMENT: "C"
- COMPOUND: "O=C(O)c1ccccc1"
  REPORTED_MEASUREMENT: "C"
- COMPOUND: "NCC(=O)O"
  REPORTED_MEASUREMENT: "C"
- COMPOUND: "O=C(O)CCCC(=O)O"
  REPORTED_MEASUREMENT: "C"
- COMPOUND: "N=C(N)NCCC[C@H](N)C(=O)O [L(+)-Arginine]"
  REPORTED_MEASUREMENT: "C"
- COMPOUND: "C/C=C/C=C/C(=O)O"
  REPORTED_MEASUREMENT: "C"
